assayedSystem: T1, human CD20 antigen (human, UniProt P11836 1-297)
T1 sequence (looked up): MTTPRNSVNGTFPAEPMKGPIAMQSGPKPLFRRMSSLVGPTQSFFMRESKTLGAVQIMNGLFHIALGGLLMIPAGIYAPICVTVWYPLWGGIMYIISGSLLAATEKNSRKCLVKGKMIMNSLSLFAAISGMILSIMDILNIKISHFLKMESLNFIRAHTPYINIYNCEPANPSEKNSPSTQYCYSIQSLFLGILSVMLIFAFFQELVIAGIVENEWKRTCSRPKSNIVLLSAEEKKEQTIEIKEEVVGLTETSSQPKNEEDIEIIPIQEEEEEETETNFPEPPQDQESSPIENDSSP
experimentDescription: cell-based or functional assay
For each record, write down the corresponding Apoptosis (5 ug/ml), DHL4.

# annotated cases, reported Apoptosis (5 ug/ml), DHL4 shown
humanized 1K1791 antibody ff (FraL x FraH) (antibody, V domains shown, Kappa, gamma 1 construct; also called hz1791 ff; Ff019) VH: QIQLVQSGSELKKPGASVKVSCKASGYTFTNFGVNWVKQAPGKGLKWMGWINTYTGEPSYADDFKGRFAFSLDASASTAYLQISSLKAEDMATYFCTRRTNYYGTSYYYAMDYWGQGTTVTVSS VL: STVMTQSPSFLSASVGDRVTITCKASQSVSNDVAWYQQKPGQSPKVLIYFASNRYTGVPDRFSGSGYGTDFTLTISSLQAEDVAVYFCQQDYSSPLTFGAGTKLEIK | 96 relative, m2B8 = 100
humanized 1K1791 antibody sf (SdrL x FraH) (antibody, V domains shown, Kappa, gamma 1 construct; also called hz1791 sf; Sf043) VH: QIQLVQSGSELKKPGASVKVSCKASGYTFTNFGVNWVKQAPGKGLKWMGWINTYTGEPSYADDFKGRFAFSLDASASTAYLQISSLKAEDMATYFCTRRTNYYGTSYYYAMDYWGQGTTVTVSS VL: STVMTQSPDSLAVSLGERATINCKSSQSNSNDVAWYQQKPGQSPKVLIYFASNRYSGVPDRFSGSGYGTDFTLTISSLQAEDVAVYFCQQDYSSPLTFGAGTKLEIK | 143 relative, m2B8 = 100
humanized 1K1791 antibody fv (FraL x VenH) (antibody, V domains shown, Kappa, gamma 1 construct; also called hz1791 fv; Fv010) VH: QIQLVQSGPELKKPGASVKISCKASGYTFTNFGVNWVKQAPGKGLKWMGWINTYTGEPSYADDFKGRFAFSLDASVSTAYLQISSLKAEDTSTYFCTRRTNYYGTSYYYAMDYWGQGTTVTVSS VL: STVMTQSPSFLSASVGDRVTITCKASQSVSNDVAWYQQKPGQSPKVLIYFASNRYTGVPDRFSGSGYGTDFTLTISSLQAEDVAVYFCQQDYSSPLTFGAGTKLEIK | 65 relative, m2B8 = 100

Now, please, on to the next binder.
Lookup result for humanized 1K1791 antibody ss (SdrL x SdrH) (antibody, V domains shown, Kappa, gamma 1 construct; also called hz1791 ss; Ss020) VH: QIQLVQSGSELKKPGASVKVSCKASGYTFTNFGVNWVRQAPGKGLKWMGWINTYTGEPSYAQGFTGRFAFSLDASVSTAYLQISSLKAEDTATYFCTRRTNYYGTSYYYAMDYWGQGTTVTVSS VL: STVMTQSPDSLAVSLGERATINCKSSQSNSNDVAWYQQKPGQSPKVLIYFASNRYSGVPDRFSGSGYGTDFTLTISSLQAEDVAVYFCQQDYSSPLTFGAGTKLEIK ; measured Apoptosis (5 ug/ml), DHL4: 133 relative, m2B8 = 100
